# test details: yeast display, Sf9 membrane polyspecificity reagent, FACS + sequencing; frameworks hold sequencing errors
experimental readout: polyreactivity (PSR sort gate)

primary sequence | reported
QVQLVESVGGLLQAGGTLRLSCAASGITFLDYGRGWYRQATGKERELVATINSGGSTNYADSVKGRFTISRDNAKHTVYLLMNSLKAEDTAVYYCDADYGSDYPKGDYWGQGTQVTVTS | low polyreactivity
QVQLVESGGGLVQAGGSLRLSCAASGSTLSGYVMGWYRQAPGKERELVAGISQSGASTYYADSVKGRFTISRDNAKNTVYLQMNSLKPEDTAVYYCAAVARYLLKYRRYGYWGQGTQVTVSS | high polyreactivity
QVQLVESGGGLVQAGGSLRLSCAASGITFPWYAMGWYRQAPGKERELVAAISSDADTYYADSVKGRFTISRDNAKNTVYLQMISLKPEDTAVYYCAAETFDYSRGYTAMGYWGQGTQVTVSS | high polyreactivity
QVQLVESGGGLVQAGGSLRLSCAASGFIFPVYAMGWYTQGGGKERELVADISSDGSTNYADSVKGRFTISRDNAKNTVYLQMNSLKPEDTAVYYCAREDNLRHQSDSRYDYWGQGTQVTVSS | low polyreactivity
QVQLVESGGGLVQAGGSLRLSCAASGSILYPNAMGWYRQAPGKERELVAAISTSGGSTYYADSVKGRFTLSRDNAKNTVYLQMNSLKPEDTAVYYCAKGWIYYSTWISEYWGQGTQVTVSS | low polyreactivity

###

# test details: yeast display, Sf9 membrane polyspecificity reagent, FACS + sequencing; frameworks hold sequencing errors

primary sequence | polyreactivity (PSR sort gate)
QVQLVESGGGLVQAGGSLRLSCAASGLTFGTNAMGWYRQAPGKERELVAAISTSSGSTYYADSVKGRFTISRDNAKKTVYLQMNSLKQEDTAVYYCAAVTVTKLSYYRYYYWGQGTQVTVSS | low polyreactivity
QVQLVESGGGLVQPGGSLRLSCAASGGIFYGYAMGWYRQAPGKERELVAAISSTGGRTYYADSVKGRFTISRDNAKNTVYLQMNSLKPEDTAVYYCAAEDFTRQFEYWGQGTQVTVSS | low polyreactivity
QVQLVESGGGLVQAGGSLRLSCAASGFMFDGYAMGWYRQAPGKERELVAAINFSGGSTYYADSVKGRFTISRDNAKNTVYLQMNSLKPEETAVYYCNADLEWNWVQFGYGYWGQGTQVTVSS | low polyreactivity
QAQLVESGGGLVQAGGSLRLSCAASGRTFYYYTMGWYRQAPGKERELVAAISYSGGSTSYADSVKGRFTISRDNAKNTVYLQMNSLKPEDTAVYYCNARYKYYTQRRYHYDYWGQGTQVTVSS | high polyreactivity
QVQLVESGGGLVQAGGSLRLSCAASGFTIGKNAMGWYRQAPGKERELVAAISLSGGRTYADSVKGRFTISRDNAKNTVYLQMNSLKPEDTAVYYCAANRYPKFYWGQGTQVTVSS | high polyreactivity
QVQLVESGGGFVQAGGSLRLSCAASGFIFTKYAMGWYRQAPGKERELVAAIRGSGGSTYYADSVKGRVTISRDNAKNTVYLQMNSLKPEDTAVYYCAAERSLGYDYWGQGTQVTVSS | high polyreactivity
QVQLVESGGGLVQAGGSLRLSCAASGRIFAAYAMGWYRQAPGKERELVAAITRRGSTYYADSVKGRFTISRDNAKNTVYLQMNSLKPEDTAVYYCNKVPLFQYSTAWYDYWGQGTQVTVSS | high polyreactivity
QVQLVESGGGLVQAGGSLRLSCAASGSTFSRNASGWYRQAPGKERELVAAISRRGDTTYYADSVKGRFTISRDNAKNTVYLQMNSLKPEDTAVYYCNRLTIGSSSYDYWGQGTQVTVSS | high polyreactivity
QVQLVESGGGLVQAGGSLRLSCAASGLTFQYNAMGWYRQAPGKERELVASINSGGSTDYADSVKGRFTISRDNAKNTVYLQMNRLKQEDTAVYYCATSGYWYSASYGYEYWGQGTQVTLSS | low polyreactivity
QVQLVESGGGLVQAGGSLRLSCAASGRTFRGNAMGWYRQAPGKERELVAAISWRGTSTYYADSVKGRFTISRDNAKNTVYLQMNSLKPEDTAVYYCNTQRQLGERFYDRSRQGDYWGQGTQVTVSS | high polyreactivity
HVQLVESGGGLVQAGGSLRLSCAASGNIFVRYAMGWYRPAPGKERELVAAISSSGGRTYYADSVKGRFTISRDNAKNTVYLQMNSLKPEDTAVYYCATGRPSHNRYDYWGQGTQVTVSS | high polyreactivity
QVQLVESGGGLVQAGGSLRLSCAASGSTFGVYAMGWYRPAPGKERELVAAIRWSGGGTYYADSVKGRFTISRDNAKNTVYLQMNSLKPEDTAVYYCNTDILSIYAEPYYFTDVDYWGQGTQVTVSS | low polyreactivity
QVQLVESGGGLVQAGGSLRLSCAASGFTFPYYAMGWYRQSPGKERELVASISRRGGSTYYADSVKGRFTISRDNANNSVYLQMKSLKPEDTAVYYCAADGSRGRWTFDYWGQGTQVTVSS | high polyreactivity
QVQLVESGGGLVQAGGSLRLSCAASGFTFVSYAMGWYRQAPGKERELVAAISSRVVSTYYADSVKGRFTISRDNAKNTVYLQMNSLKPEDTAVYYCATDRYAYKLYDYWGQGTQVTVSS | low polyreactivity
QVQLVESGGGLVQAGGSLRLSCAASGRILYKYAMGWYRQAPGKERELVAAISWRGTTTYYADSVKGRFTISRDNAKNTVYLQMNSLKPEDTAVYYGAIDRSYGYFSRPVSQYDYWGQGTQVTVSS | high polyreactivity
QVQLVESGGGLVQAGGSLRLSCAASGSTFFKYAMGWYRQAPGKERELVAAISYSGGSTYYADSVKGRFTISRDNAKNTVYLQMNSLKPVDTAVYYCAARVQNRYRPYYYWGQGTQVTVSS | high polyreactivity
QVQLVESGGGIVQAGGSLRLSFAASGSIFEINALGWYRQAPGKERELVAAITGSGGSTHYADSVKGRFTISRDTAKNTVYLQMNSLKPEDTAVYYCARTQRYDYGYDYWGQGTQVTVSS | low polyreactivity
QVQLVESGGGLVQAGGSLRLSCAASGSTFHTYAMGWYRQAPGKERELVASISYGVTTYYADSVKGRFTISRDNAKNTVYLQMNSLKPEDTAVYYCAREGYKWVYLSYGYWGQGTQVTVSS | low polyreactivity
QVQLVESGGGLVQAGGSLRLSCAASGRIFYNYAMGWYRQAPGKERELVAAISGSGGSTYYADSVKGRFTISRDNAKNTVYLQMNSLKPEDTAVYYCAADSYVSPEVRFDYWGQGTQVTVSS | low polyreactivity
QVQLVESGGGLVQAGGSLRLSCAASGRTFYIYAMGWYRQAPVKERELVAAITYGGGRTFYADSVKGRFTISRDNAKNTVYLKMNSLKPEDTAVYYCARGDFYYHSRYTYYTSDYWGQGTQVTVSS | high polyreactivity
QVHLVESGGGLVQAGGSLRLSCAASGGTFGYYAMGWYRPAPGKERELVAAINARGDSTYYADSVKGRFTISRDNAKNTVYFLMNSLKPEDTAVYYCNTGIALFGYKYHYWGQGTQVTVSS | low polyreactivity
